Tested on: HT-29
measurement notes: In vitro cytotoxic activity, SRB assay
Type: cell-based, human
protocol conditions: HT-29, 48 hours exposure, read-out: LC50 (the source's name)
Excerpt: Plates are washed with deionized water and dried.
So I've got a bunch of compounds here, and I need their CC50 values.
Give bare numbers, in nM.

Below, 2 compounds whose answers are already recorded.
compound	CC50 (nM)
C/C=C1\NC(=O)[C@H](Cc2ccccc2)NC(=O)[C@@H](C(C)C)NC(=O)[C@@H]([C@@H](C)CC)NC(=O)[C@H](NC(=O)[C@H](NC(=O)[C@H](CCCN)NC(=O)[C@H]2CCCN2C(=O)[C@H](NC(=O)[C@@H](NC(=O)[C@@H](NC(=O)[C@H](NC(=O)CCCC(C)C)C(C)C)[C@@H](C)O)C(C)C)C(C)C)[C@@H](C)CC)[C@@H](C)OC(=O)[C@H](C(C)C)NC1=O [5-methylhexanoic KF, reference compound]	562
C/C=C1\NC(=O)[C@H](Cc2ccccc2)NC(=O)[C@@H](C(C)C)NC(=O)[C@@H]([C@@H](C)CC)NC(=O)[C@H](NC(=O)[C@H](NC(=O)[C@H](CCCN)NC(=O)[C@H]2CCCN2C(=O)[C@H](NC(=O)[C@@H](NC(=O)[C@@H](NC(=O)[C@H](NC(=O)CC[C@@H](C)CC)C(C)C)[C@@H](C)O)C(C)C)C(C)C)[C@@H](C)CC)[C@@H](C)OC(=O)[C@H](C(C)C)NC1=O	2710

Next compound, CC50 to be filled in.
Lab note: measured CC50 of C/C=C1\NC(=O)[C@H](Cc2ccccc2)NC(=O)[C@@H](C(C)C)NC(=O)[C@@H]([C@@H](C)CC)NC(=O)[C@H](NC(=O)[C@H](NC(=O)[C@H](CCCN)NC(=O)[C@H]2CCCN2C(=O)[C@H](NC(=O)[C@@H](NC(=O)[C@@H](NC(=O)[C@H](NC(=O)CC[C@H](C)CC)C(C)C)[C@@H](C)O)C(C)C)C(C)C)[C@@H](C)CC)[C@@H](C)OC(=O)[C@H](C(C)C)NC1=O was 3220

###

measurement notes: In vivo MTD in CD-1 mice
protocol conditions: mouse, intravenous, male CD-1 mice, single bolus, unit inferred, read-out: Male CD-1 mice MTD Bolus
readout: MTD
Write the numeric value and follow it with the unit.

compound	MTD
C/C=C1\NC(=O)[C@H](Cc2ccccc2)NC(=O)[C@@H](C(C)C)NC(=O)[C@@H]([C@@H](C)CC)NC(=O)[C@H](NC(=O)[C@H](NC(=O)[C@H](CCCN)NC(=O)[C@H]2CCCN2C(=O)[C@H](NC(=O)[C@@H](NC(=O)[C@@H](NC(=O)[C@H](NC(=O)CCCC(C)C)C(C)C)[C@@H](C)O)C(C)C)C(C)C)[C@@H](C)CC)[C@@H](C)OC(=O)[C@H](C(C)C)NC1=O [5-methylhexanoic KF, reference compound]	0.3 mg/kg

Please examine the following record next.
MTD in this record for C/C=C1\NC(=O)[C@H](Cc2ccccc2)NC(=O)[C@@H](C(C)C)NC(=O)[C@@H]([C@@H](C)CC)NC(=O)[C@H](NC(=O)[C@H](NC(=O)[C@H](CCCN)NC(=O)[C@H]2CCCN2C(=O)[C@H](NC(=O)[C@@H](NC(=O)[C@@H](NC(=O)[C@H](NC(=O)CC[C@@H](C)CC)C(C)C)[C@@H](C)O)C(C)C)C(C)C)[C@@H](C)CC)[C@@H](C)OC(=O)[C@H](C(C)C)NC1=O [(4S)-methylhexanoic KF] : 0.3 mg/kg

###

System: HELA-APL
measurement notes: In vitro cytotoxic activity, SRB assay
Type: cell-based, human
protocol conditions: 48 hours exposure, read-out: LC50 (the source's name)
readout: CC50 (µM)
Answers are plain numbers, in µM.

compound	reported measurement
C/C=C1\NC(=O)[C@H](Cc2ccccc2)NC(=O)[C@@H](C(C)C)NC(=O)[C@@H]([C@@H](C)CC)NC(=O)[C@H](NC(=O)[C@H](NC(=O)[C@H](CCCN)NC(=O)[C@H]2CCCN2C(=O)[C@H](NC(=O)[C@@H](NC(=O)[C@@H](NC(=O)[C@H](NC(=O)CC[C@@H](C)CC)C(C)C)[C@@H](C)O)C(C)C)C(C)C)[C@@H](C)CC)[C@@H](C)OC(=O)[C@H](C(C)C)NC1=O [(4S)-methylhexanoic KF]	4.39
C/C=C1\NC(=O)[C@H](Cc2ccccc2)NC(=O)[C@@H](C(C)C)NC(=O)[C@@H]([C@@H](C)CC)NC(=O)[C@H](NC(=O)[C@H](NC(=O)[C@H](CCCN)NC(=O)[C@H]2CCCN2C(=O)[C@H](NC(=O)[C@@H](NC(=O)[C@@H](NC(=O)[C@H](NC(=O)CCCC(C)C)C(C)C)[C@@H](C)O)C(C)C)C(C)C)[C@@H](C)CC)[C@@H](C)OC(=O)[C@H](C(C)C)NC1=O [5-methylhexanoic KF, reference compound]	4.43

Please examine the following record next.
// recorded CC50 for C/C=C1\NC(=O)[C@H](Cc2ccccc2)NC(=O)[C@@H](C(C)C)NC(=O)[C@@H]([C@@H](C)CC)NC(=O)[C@H](NC(=O)[C@H](NC(=O)[C@H](CCCN)NC(=O)[C@H]2CCCN2C(=O)[C@H](NC(=O)[C@@H](NC(=O)[C@@H](NC(=O)[C@H](NC(=O)CC[C@H](C)CC)C(C)C)[C@@H](C)O)C(C)C)C(C)C)[C@@H](C)CC)[C@@H](C)OC(=O)[C@H](C(C)C)NC1=O [(4R)-methylhexanoic KF] : 6.77

###

Test system: LN-caP
measurement notes: In vitro cytotoxic activity, SRB assay
Format: cell-based, human
protocol conditions: 48 hours exposure
Provide the reported LC50 (50% lethal concentration) of each item.
Answers are plain numbers, in µM.

compound	LC50 (50% lethal concentration) (µM)
C/C=C1\NC(=O)[C@H](Cc2ccccc2)NC(=O)[C@@H](C(C)C)NC(=O)[C@@H]([C@@H](C)CC)NC(=O)[C@H](NC(=O)[C@H](NC(=O)[C@H](CCCN)NC(=O)[C@H]2CCCN2C(=O)[C@H](NC(=O)[C@@H](NC(=O)[C@@H](NC(=O)[C@H](NC(=O)CC[C@@H](C)CC)C(C)C)[C@@H](C)O)C(C)C)C(C)C)[C@@H](C)CC)[C@@H](C)OC(=O)[C@H](C(C)C)NC1=O	5.93
C/C=C1\NC(=O)[C@H](Cc2ccccc2)NC(=O)[C@@H](C(C)C)NC(=O)[C@@H]([C@@H](C)CC)NC(=O)[C@H](NC(=O)[C@H](NC(=O)[C@H](CCCN)NC(=O)[C@H]2CCCN2C(=O)[C@H](NC(=O)[C@@H](NC(=O)[C@@H](NC(=O)[C@H](NC(=O)CC[C@H](C)CC)C(C)C)[C@@H](C)O)C(C)C)C(C)C)[C@@H](C)CC)[C@@H](C)OC(=O)[C@H](C(C)C)NC1=O	4.04

For record C/C=C1\NC(=O)[C@H](Cc2ccccc2)NC(=O)[C@@H](C(C)C)NC(=O)[C@@H]([C@@H](C)CC)NC(=O)[C@H](NC(=O)[C@H](NC(=O)[C@H](CCCN)NC(=O)[C@H]2CCCN2C(=O)[C@H](NC(=O)[C@@H](NC(=O)[C@@H](NC(=O)[C@H](NC(=O)CCCC(C)C)C(C)C)[C@@H](C)O)C(C)C)C(C)C)[C@@H](C)CC)[C@@H](C)OC(=O)[C@H](C(C)C)NC1=O [5-methylhexanoic KF, reference compound] the listed LC50 (50% lethal concentration) is 5.57

###

measurement notes: In vivo MTD in athymic mice
protocol conditions: mouse, intravenous, male athymic mice, single bolus, unit inferred, read-out: Male athymic mice MTD Bolus
readout: MTD (mg/kg)
Numbers only, in mg/kg.

molecule	readout units	reported measurement
C/C=C1\NC(=O)[C@H](Cc2ccccc2)NC(=O)[C@@H](C(C)C)NC(=O)[C@@H]([C@@H](C)CC)NC(=O)[C@H](NC(=O)[C@H](NC(=O)[C@H](CCCN)NC(=O)[C@H]2CCCN2C(=O)[C@H](NC(=O)[C@@H](NC(=O)[C@@H](NC(=O)[C@H](NC(=O)CC[C@@H](C)CC)C(C)C)[C@@H](C)O)C(C)C)C(C)C)[C@@H](C)CC)[C@@H](C)OC(=O)[C@H](C(C)C)NC1=O [(4S)-methylhexanoic KF]	mg/kg	0.35

Now look at this entry.
The molecule identified as C/C=C1\NC(=O)[C@H](Cc2ccccc2)NC(=O)[C@@H](C(C)C)NC(=O)[C@@H]([C@@H](C)CC)NC(=O)[C@H](NC(=O)[C@H](NC(=O)[C@H](CCCN)NC(=O)[C@H]2CCCN2C(=O)[C@H](NC(=O)[C@@H](NC(=O)[C@@H](NC(=O)[C@H](NC(=O)CCCC(C)C)C(C)C)[C@@H](C)O)C(C)C)C(C)C)[C@@H](C)CC)[C@@H](C)OC(=O)[C@H](C(C)C)NC1=O [5-methylhexanoic KF, reference compound] registered its MTD at 0.35
